Recorded values, source ChEMBL document CHEMBL4014313.

Let's go through some recorded pKi values for Carbonic anhydrase 9 (Homo sapiens, UniProt Q16790) together.
// pKi: -log10(molar conc.)

Before answering, review these 8 worked examples.
molecule=NS(=O)(=O)c1ccc(C(=O)N2CCc3cc(O)c(O)cc3[C@H]2c2ccccc2)cc1 assay_system="Carbonic anhydrase 9 (Homo sapiens, UniProt Q16790)" result_value=7.49
molecule="COc1cc2c(cc1OC)C(c1ccccc1)N(C(=O)c1ccc(S(N)(=O)=O)cc1)CC2 (single isomer, unassigned; enantiomer 1)" assay_system="Carbonic anhydrase 9 (Homo sapiens, UniProt Q16790)" result_value=8.30
molecule="COc1cc2c(cc1OC)C(c1ccc(Br)cc1)N(C(=O)c1ccc(S(N)(=O)=O)cc1)CC2 (racemic)" assay_system="Carbonic anhydrase 9 (Homo sapiens, UniProt Q16790)" result_value=7.04
molecule="COc1cc2c(cc1OC)C(c1ccc(Cl)cc1)N(C(=O)c1ccc(S(N)(=O)=O)cc1)CC2 (racemic)" assay_system="Carbonic anhydrase 9 (Homo sapiens, UniProt Q16790)" result_value=7.04
molecule="NS(=O)(=O)c1ccc(C(=O)N2CCc3cc(O)ccc3C2c2ccccc2)cc1 (single isomer, unassigned; Enantiomer-1)" assay_system="Carbonic anhydrase 9 (Homo sapiens, UniProt Q16790)" result_value=7.14
molecule="NS(=O)(=O)c1ccc(C(=O)N2CCc3cc(O)c(O)cc3C2c2ccc(Cl)cc2)cc1 (racemic)" assay_system="Carbonic anhydrase 9 (Homo sapiens, UniProt Q16790)" result_value=8.05
molecule="COc1cc2c(cc1OC)C(c1ccccc1)N(C(=O)c1ccc(S(N)(=O)=O)cc1)CC2 (racemic)" assay_system="Carbonic anhydrase 9 (Homo sapiens, UniProt Q16790)" result_value=8.31
molecule="COc1cc2c(cc1OC)C(c1ccccc1)N(C(=O)c1ccc(S(N)(=O)=O)cc1)CC2 (single isomer, unassigned; enantiomer 2)" assay_system="Carbonic anhydrase 9 (Homo sapiens, UniProt Q16790)" result_value=8.32

// molecule COc1ccc2c(c1)CCN(C(=O)c1ccc(S(N)(=O)=O)cc1)C2c1ccccc1 (racemic) , assay Carbonic anhydrase 9 (Homo sapiens, UniProt Q16790), pKi value: 7.41
